Reference for the values: paper PMC11695783

# Tested on: Mycoplasma pneumoniae strain M129 (ATCC 29342)
# Assay text: Time-kill curves
# Assay type: cell-based
# Design: unit not given here
# Run parameters: 4×MIC; time 72
Field 'label' (enum: met / not met). Set to met when M. pneumoniae count in time-kill curve is strictly under 4; else not met.

Compound | Target or system | Discrete label
C=C[C@]1(C)C[C@@H](OC(=O)CSCCN(CC)CC)[C@]2(C)[C@H](C)CC[C@]3(CCC(=O)[C@H]32)[C@@H](C)[C@@H]1O [tiamulin, Tiamulin, reference compound] | Mycoplasma pneumoniae strain M129 (ATCC 29342) | met
O=C(O)c1cn(C2CC2)c2cc(N3CCNCC3)c(F)cc2c1=O [ciprofloxacin] | Mycoplasma pneumoniae strain M129 (ATCC 29342) | not met
C=CC1(C)CC(OC(=O)CSc2ccc(NC(=O)Cc3ccc([N+](=O)[O-])cc3)cc2)C2(C)C(C)CCC3(CCC(=O)C32)C(C)C1O (centres unmarked) [compound 16C] | Mycoplasma pneumoniae strain M129 (ATCC 29342) | not met
CN(C)[C@@H]1C(O)=C(C(N)=O)C(=O)[C@@]2(O)C(O)=C3C(=O)c4c(O)cccc4[C@@](C)(O)[C@H]3C[C@@H]12 [tetracycline] | Mycoplasma pneumoniae strain M129 (ATCC 29342) | met
CC[C@H]1OC(=O)[C@H](C)[C@@H](O[C@H]2C[C@@](C)(OC)[C@@H](O)[C@H](C)O2)[C@H](C)[C@@H](O[C@@H]2O[C@H](C)C[C@H](N(C)C)[C@H]2O)[C@](C)(O)C[C@@H](C)C(=O)[C@H](C)[C@@H](O)[C@]1(C)O [erythromycin] | Mycoplasma pneumoniae strain M129 (ATCC 29342) | met

###

# Tested on: Mycoplasma pneumoniae strain M129 (ATCC 29342)
# Assay text: Time-kill curves
# Format: cell-based
# Design: unit not given here
# Run parameters: 32×MIC; time 0
Reported values of M. pneumoniae count in time-kill curve for individual entries
Recorded endpoint: M. pneumoniae count in time-kill curve

Compound | Recorded number
CC[C@H]1OC(=O)[C@H](C)[C@@H](O[C@H]2C[C@@](C)(OC)[C@@H](O)[C@H](C)O2)[C@H](C)[C@@H](O[C@@H]2O[C@H](C)C[C@H](N(C)C)[C@H]2O)[C@](C)(O)C[C@@H](C)C(=O)[C@H](C)[C@@H](O)[C@]1(C)O [erythromycin] | 7.138
C=C[C@]1(C)C[C@@H](OC(=O)CSCCN(CC)CC)[C@]2(C)[C@H](C)CC[C@]3(CCC(=O)[C@H]32)[C@@H](C)[C@@H]1O [tiamulin, Tiamulin, reference compound] | 6.339

###

# System: Mycoplasma pneumoniae strain M129 (ATCC 29342)
# Assay text: Time-kill curves
# Type: cell-based
# Design: unit not given here
# Run parameters: 1×MIC; time 0

Compound | M. pneumoniae count in time-kill curve
CC[C@H]1OC(=O)[C@H](C)[C@@H](O[C@H]2C[C@@](C)(OC)[C@@H](O)[C@H](C)O2)[C@H](C)[C@@H](O[C@@H]2O[C@H](C)C[C@H](N(C)C)[C@H]2O)[C@](C)(O)C[C@@H](C)C(=O)[C@H](C)[C@@H](O)[C@]1(C)O | 7.138
C=C[C@]1(C)C[C@@H](OC(=O)CSCCN(CC)CC)[C@]2(C)[C@H](C)CC[C@]3(CCC(=O)[C@H]32)[C@@H](C)[C@@H]1O [tiamulin, Tiamulin, reference compound] | 6.339
CN(C)[C@@H]1C(O)=C(C(N)=O)C(=O)[C@@]2(O)C(O)=C3C(=O)c4c(O)cccc4[C@@](C)(O)[C@H]3C[C@@H]12 | 6.522
O=C(O)c1cn(C2CC2)c2cc(N3CCNCC3)c(F)cc2c1=O | 7.07
C=CC1(C)CC(OC(=O)CSc2ccc(NC(=O)Cc3ccc([N+](=O)[O-])cc3)cc2)C2(C)C(C)CCC3(CCC(=O)C32)C(C)C1O (centres unmarked) [compound 16C] | 7.809

###

# System: Mycoplasma pneumoniae strain M129 (ATCC 29342)
# Assay text: Time-kill curves
# Assay type: cell-based
# Set-up: unit not given here
# Run parameters: 16×MIC; time 24

Molecule | M. pneumoniae count in time-kill curve
C=CC1(C)CC(OC(=O)CSc2ccc(NC(=O)Cc3ccc([N+](=O)[O-])cc3)cc2)C2(C)C(C)CCC3(CCC(=O)C32)C(C)C1O (centres unmarked) [compound 16C] | 4.094
CN(C)[C@@H]1C(O)=C(C(N)=O)C(=O)[C@@]2(O)C(O)=C3C(=O)c4c(O)cccc4[C@@](C)(O)[C@H]3C[C@@H]12 | 4.191
CC[C@H]1OC(=O)[C@H](C)[C@@H](O[C@H]2C[C@@](C)(OC)[C@@H](O)[C@H](C)O2)[C@H](C)[C@@H](O[C@@H]2O[C@H](C)C[C@H](N(C)C)[C@H]2O)[C@](C)(O)C[C@@H](C)C(=O)[C@H](C)[C@@H](O)[C@]1(C)O | 6.1338
C=C[C@]1(C)C[C@@H](OC(=O)CSCCN(CC)CC)[C@]2(C)[C@H](C)CC[C@]3(CCC(=O)[C@H]32)[C@@H](C)[C@@H]1O [tiamulin, Tiamulin, reference compound] | 5.56
O=C(O)c1cn(C2CC2)c2cc(N3CCNCC3)c(F)cc2c1=O | 4.279

###

# Tested on: Mycoplasma pneumoniae strain M129 (ATCC 29342)
# Assay text: Time-kill curves
# Format: cell-based
# Parameters: unit not given here
# Run parameters: 1×MIC; time 72
Recorded endpoint: M. pneumoniae count in time-kill curve

Compound | Result
O=C(O)c1cn(C2CC2)c2cc(N3CCNCC3)c(F)cc2c1=O | 5.901
CN(C)[C@@H]1C(O)=C(C(N)=O)C(=O)[C@@]2(O)C(O)=C3C(=O)c4c(O)cccc4[C@@](C)(O)[C@H]3C[C@@H]12 | 4.04
C=C[C@]1(C)C[C@@H](OC(=O)CSCCN(CC)CC)[C@]2(C)[C@H](C)CC[C@]3(CCC(=O)[C@H]32)[C@@H](C)[C@@H]1O [tiamulin, Tiamulin, reference compound] | 4.787
C=CC1(C)CC(OC(=O)CSc2ccc(NC(=O)Cc3ccc([N+](=O)[O-])cc3)cc2)C2(C)C(C)CCC3(CCC(=O)C32)C(C)C1O (centres unmarked) [compound 16C] | 5.5397
CC[C@H]1OC(=O)[C@H](C)[C@@H](O[C@H]2C[C@@](C)(OC)[C@@H](O)[C@H](C)O2)[C@H](C)[C@@H](O[C@@H]2O[C@H](C)C[C@H](N(C)C)[C@H]2O)[C@](C)(O)C[C@@H](C)C(=O)[C@H](C)[C@@H](O)[C@]1(C)O | 6.113

###

Reported values of M. pneumoniae count in time-kill curve for individual entries
# Test system: Mycoplasma pneumoniae strain M129 (ATCC 29342)
# Assay text: Time-kill curves
# Type: cell-based
# Set-up: unit not given here
# Run parameters: 4×MIC; time 12

Molecule | M. pneumoniae count in time-kill curve
CN(C)[C@@H]1C(O)=C(C(N)=O)C(=O)[C@@]2(O)C(O)=C3C(=O)c4c(O)cccc4[C@@](C)(O)[C@H]3C[C@@H]12 | 5.527
CC[C@H]1OC(=O)[C@H](C)[C@@H](O[C@H]2C[C@@](C)(OC)[C@@H](O)[C@H](C)O2)[C@H](C)[C@@H](O[C@@H]2O[C@H](C)C[C@H](N(C)C)[C@H]2O)[C@](C)(O)C[C@@H](C)C(=O)[C@H](C)[C@@H](O)[C@]1(C)O | 6.078
O=C(O)c1cn(C2CC2)c2cc(N3CCNCC3)c(F)cc2c1=O | 5.551
C=C[C@]1(C)C[C@@H](OC(=O)CSCCN(CC)CC)[C@]2(C)[C@H](C)CC[C@]3(CCC(=O)[C@H]32)[C@@H](C)[C@@H]1O [tiamulin, Tiamulin, reference compound] | 6.61
C=CC1(C)CC(OC(=O)CSc2ccc(NC(=O)Cc3ccc([N+](=O)[O-])cc3)cc2)C2(C)C(C)CCC3(CCC(=O)C32)C(C)C1O (centres unmarked) [compound 16C] | 6.539

###

# Tested on: Mycoplasma pneumoniae strain M129 (ATCC 29342)
# Assay text: Time-kill curves
# Assay type: cell-based
# Set-up: unit not given here
# Run parameters: 8×MIC; time 24
# Protocol: […] The tubes were incubated at 37°C in 5% CO2 for 72 h, and 200 µL of the culture was removed every 12 h for 10-fold serial dilutions. The diluted cultures were plated on plates for further culture and counted after 7 d. […]
Reported values of M. pneumoniae count in time-kill curve for individual entries

Compound | M. pneumoniae count in time-kill curve
O=C(O)c1cn(C2CC2)c2cc(N3CCNCC3)c(F)cc2c1=O | 4.574
C=CC1(C)CC(OC(=O)CSc2ccc(NC(=O)Cc3ccc([N+](=O)[O-])cc3)cc2)C2(C)C(C)CCC3(CCC(=O)C32)C(C)C1O (centres unmarked) [compound 16C] | 5.719
CC[C@H]1OC(=O)[C@H](C)[C@@H](O[C@H]2C[C@@](C)(OC)[C@@H](O)[C@H](C)O2)[C@H](C)[C@@H](O[C@@H]2O[C@H](C)C[C@H](N(C)C)[C@H]2O)[C@](C)(O)C[C@@H](C)C(=O)[C@H](C)[C@@H](O)[C@]1(C)O | 6.145
C=C[C@]1(C)C[C@@H](OC(=O)CSCCN(CC)CC)[C@]2(C)[C@H](C)CC[C@]3(CCC(=O)[C@H]32)[C@@H](C)[C@@H]1O [tiamulin, Tiamulin, reference compound] | 6.148
CN(C)[C@@H]1C(O)=C(C(N)=O)C(=O)[C@@]2(O)C(O)=C3C(=O)c4c(O)cccc4[C@@](C)(O)[C@H]3C[C@@H]12 | 4.431
